Each recorded value in this set is attributed to patent US10919852B2.

# target_entity: human PD-L1 / Human PD-1 (Homo sapiens (Human))
# Sequence (Q9NZQ7 19-239): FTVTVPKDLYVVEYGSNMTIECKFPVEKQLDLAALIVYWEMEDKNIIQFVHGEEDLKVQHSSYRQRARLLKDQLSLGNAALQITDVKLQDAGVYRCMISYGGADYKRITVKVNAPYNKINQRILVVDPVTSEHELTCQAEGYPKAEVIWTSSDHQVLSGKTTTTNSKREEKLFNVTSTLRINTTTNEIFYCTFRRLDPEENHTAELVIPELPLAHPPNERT
# protocol_notes: Enzyme-Linked Immunosorbent Assay (ELISA), PD-1/PD-L1 binding
# measurement_setup: plate-coated human PD-L1, biotinylated human PD-1
pIC50: −log10 of the molar value.
Kindly supply the reported pIC50 values for the records listed here.

Solved cases below.
{"compound": "N#Cc1cncc(COc2cc(O[C@H]3CCc4c(-c5cccc(OCCCN6CCC(F)CC6)c5Cl)cccc43)c(Cl)cc2CN[C@H]2CCC[C@@H]2O)c1", "measure_name": "pIC50", "test_result": "> 8.30"}
{"compound": "N#Cc1cncc(COc2cc(O[C@H]3CCc4c(-c5cccc(OCCCN6CCC(F)CC6)c5C(F)(F)F)cccc43)c(Cl)cc2CNCC2CCC(=O)N2)c1 (stereo partly shown)", "measure_name": "pIC50", "test_result": "6.30 to 8.30"}
{"compound": "CN1CCC(COc2cccc(-c3cccc4c3CC[C@@H]4Oc3cc(OCc4cncc(C#N)c4)c(CNC[C@@H]4CCC(=O)N4)cc3Cl)c2Cl)C1 (stereo partly shown)", "measure_name": "pIC50", "test_result": "> 8.30"}
{"compound": "N#Cc1cncc(COc2cc(O[C@H]3CCc4c(-c5cccc(OCCCN6CC(O)C6)c5Cl)cccc43)c(Cl)cc2CN2CC(O)C2)c1", "measure_name": "pIC50", "test_result": "> 8.30"}

List pIC50 for every entry below, keeping the order given.
1. Cc1c(OCCCN2CCC(C)(F)CC2)cccc1-c1cccc2c1CC[C@@H]2Oc1cc(OCc2cc(C#N)cc(C#N)c2)c(CN2CC3(C2)NC(=O)NC3=O)cc1Cl
2. CCOc1cc(O[C@H]2CCc3c(-c4cccc(OCCCN5CCC5(C)C)c4C)cccc32)c(Cl)cc1CN(CC)CCC(=O)OC
3. CCOc1cc(O[C@H]2CCc3c(-c4cccc(OCCCN5C(C)CC5(C)C)c4C)cccc32)c(Cl)cc1CNC[C@@H]1CCC(=O)N1 (stereo partly shown)
4. Cc1c(OCCCN2CCC(F)CC2)cccc1-c1cccc2c1CC[C@@H]2Oc1cc(OCc2cncc(C#N)c2)c(CNCCS(=O)(=O)O)cc1Cl

A:
1. 4.70 to 6.30
2. 6.30 to 8.30
3. > 8.30
4. > 8.30

# map each compound to its pIC50
1. N#Cc1cncc(COc2cc(O[C@H]3CCc4c(-c5cccc(OCCCN6CCC(F)CC6)c5Cl)cccc43)c(Cl)cc2CN[C@@H]2CCC(=O)NC2)c1
2. Cc1c(OCCCN2CCC(O)CC2)cccc1-c1cccc2c1CC[C@@H]2Oc1cc(OCc2cncc(C#N)c2)c(CN2CC[C@H](O)C2)cc1Cl
3. CC1(F)CCN(CCCOc2cccc(-c3cccc4c3CC[C@@H]4Oc3cc(OCc4cncc(C#N)c4)c(CNC[C@H]4CCC(=O)N4)cc3Cl)c2Cl)CC1
4. CCOc1cc(O[C@H]2CCc3c(-c4cccc(OCCCN5CCC(F)CC5)c4Cl)cccc32)c(Cl)cc1CN[C@H](C(=O)NS(C)(=O)=O)[C@@H](C)O

A:
1. > 8.30
2. > 8.30
3. 6.30 to 8.30
4. 6.30 to 8.30

Q: # get_value(readout='pIC50', item= CN1CCC(COc2cccc(-c3cccc4c3CC[C@@H]4Oc3cc(OCc4cncc(C#N)c4)c(CN[C@H]4CCC(=O)NC4)cc3Cl)c2Cl)C1 (stereo partly shown) )
A: 6.30 to 8.30
